# TARGET DESC: MAP kinase-activated protein kinase 2 (Homo sapiens)
# ASSAY SUMMARY: Inhibition of MK2 expressed in Escherichia coli or baculovirus-infected insect cells at 667 uM by IMAP assay
PROPERTY MEASURED: inhibition
In your response, the unit should come after the numeric value.

Past entries and their recorded results:
Give inhibition for this entry on MAP kinase-activated protein kinase 2 (Homo sapiens): `c1ccc(Nc2ncccn2)cc1`
24%

Give inhibition for this entry on MAP kinase-activated protein kinase 2 (Homo sapiens): `c1n[nH]c2c1CCCC2`
24%

Give inhibition for this entry on MAP kinase-activated protein kinase 2 (Homo sapiens): `c1ccc(Nc2ccccc2)cc1`
7%

# evaluate next
Give inhibition for this entry on MAP kinase-activated protein kinase 2 (Homo sapiens): `Cc1ccc(NC(=O)Nc2cc(C(C)(C)C)nn2-c2ccccc2)cc1`
24%

Source listed as ChEMBL document CHEMBL1817560.
